Test system: NS5A chimeric genotype 2a JFH-1 replicon with genotype 2b MD2b-1 strain NS5A gene (M31 present)
Test Details: microbe, parasite or virus in culture
Type: cell-based, HCV
Experimental Context: Hepatitis C virus, read-out: 2b (t) (nM)
Description: Evaluation of Cell-Based Anti-HCV Activity: Antiviral potency (EC50) was determined using a Renilla luciferase (RLuc)-based HCV replicon reporter assay. […] 72 hours later, cells were lysed and Renilla luciferase activity quantified as recommended by the manufacturer (Promega-Madison, Wis.). […]
Property: EC50 (nM)
Numbers only, in nM.

Compound | Property | Obs Value
COC(=O)N[C@H](C(=O)N1C[C@@H](C)C[C@H]1c1nc2ccc3cc4c(cc3c2[nH]1)OCc1cc(-c2cnc([C@@H]3C[C@H](C)CN3C(=O)[C@H](NC(=O)OC)c3ccccc3)[nH]2)ccc1-4)C(C)C [Example PG] | EC50 | 0.027
COC(=O)N[C@H](C(=O)N1[C@H](c2nc3ccc4cc5c(cc4c3[nH]2)OCc2cc(-c3cnc(C4CCCN4C(=O)[C@H](NC(=O)OC)c4ccccc4)[nH]3)ccc2-5)C[C@@H]2CCC[C@@H]21)C(C)C (stereo partly drawn) [Example PN] | EC50 | 0.014
COC[C@H]1C[C@@H](c2nc3ccc4cc5c(cc4c3[nH]2)OCc2cc(-c3cnc([C@@H]4C[C@H](C)CN4C(=O)[C@H](NC(=O)OC)c4ccccc4)[nH]3)ccc2-5)N(C(=O)[C@@H](NC(=O)OC)C(C)C)C1 [Example PF] | EC50 | 0.023
COC[C@H]1C[C@@H](c2nc3ccc4cc5c(cc4c3[nH]2)OCc2cc(-c3cnc([C@@H]4CCCN4C(=O)[C@H](NC(=O)OC)c4ccccc4)[nH]3)ccc2-5)N(C(=O)[C@@H](NC(=O)OC)C(C)C)C1 [Example MM] | EC50 | 0.015

Working through the 5 compounds below one at a time, give EC50 for each.
1. COC(=O)N[C@H](C(=O)N1[C@@H](C)CC[C@H]1c1nc2ccc3cc4c(cc3c2[nH]1)OCc1cc(-c2cnc([C@@H]3C[C@H](C)CN3C(=O)[C@H](NC(=O)OC)c3ccccc3)[nH]2)ccc1-4)C(C)C [Example QF]
2. COC(=O)N[C@H](C(=O)N1[C@@H](C)CC[C@H]1c1nc2ccc3cc4c(cc3c2[nH]1)OCc1cc(-c2cnc([C@@H]3C[C@H](C)CN3C(=O)[C@@H](NC(=O)OC)[C@@H](C)OC)[nH]2)ccc1-4)C(C)C [Example QH]
3. COC(=O)N[C@H](C(=O)N1[C@@H]2C[C@@H]2C[C@H]1c1nc2ccc3cc4c(cc3c2[nH]1)OCc1cc(-c2cnc([C@@H]3CCCN3C(=O)[C@H](NC(=O)OC)c3ccccc3)[nH]2)ccc1-4)C(C)C [Compound 536]
4. COC(=O)N[C@H](C(=O)N1[C@@H](C)CC[C@H]1c1ncc(-c2ccc3c(c2)COc2cc4c(ccc5nc([C@@H]6CCCN6C(=O)[C@H](NC(=O)OC)c6ccccc6)[nH]c54)cc2-3)[nH]1)C(C)C [Example NQ]
5. COC(=O)N[C@H](C(=O)N1C[C@@H](COC(F)F)C[C@H]1c1ncc(-c2ccc3c(c2)COc2cc4c(ccc5nc([C@@H]6CC[C@H](C)N6C(=O)[C@@H](NC(=O)OC)C(C)C)[nH]c54)cc2-3)[nH]1)C(C)C [Example PT]

**A:**
1: 0.015; 2: 0.051; 3: 0.011; 4: 0.013; 5: 0.182
